// provenance: PubChem BioAssay (NCI)

Please respond with reported TGI for every item in the list.
- Tested on: UACC-62 melanoma
- protocolSummary: NCI tumour cell line growth inhibition, 48 h

Which TGI value belongs to `O=c1c2ccccc2nc(/C=C(\O)c2ccncc2)n1-c1ccc(Cl)cc1` ?
> 100 µM

Follow-up item: `Cn1ccc(C(=O)NCCN(CCNC(=O)c2ccn(C)c(=O)c2O)CCNC(=O)c2ccn(C)c(=O)c2O)c(O)c1=O`
> 100 µM

Entry `OCCCNc1ccnc2cc(Cl)ccc12` please
> 100 µM

Next entry: `O=C(CCCN1CCC2(CC1)CC(=O)N(N1CCOCC1)C2=O)c1ccc(F)cc1`
> 100 µM

Follow-up item: C#C/C=C\CCCCCCCCCCCCCC/C=C\CCCCC#CC(O)C#CCCCC/C=C\CCCCCC/C=C/C(O)C#C (stereo not given)
36.8 µM

----------
Provide the reported TGI of each item.
- System: SK-MEL-5 melanoma
- protocolSummary: NCI tumour cell line growth inhibition, 48 h

Recorded TGI for Nc1nc(Cl)cc(NCC(O)CO)n1 (configuration not stated) , please?
> 100 µM

Subsequent entry: `O=c1/c(=C/c2ccc([N+](=O)[O-])o2)sc2n1[C@@H](c1ccc(Cl)cc1)C=C(c1cc(F)c(Cl)cc1Cl)N=2`
28.8 µM

What about this molecule? `Cn1ncc2c(Nc3cccc(Cl)c3)nc(Nc3cccc(Cl)c3)nc21`
> 51.6 µM

Ok, now `CCNC(=O)Nc1ccc(Oc2ccnc3ccc4c(ccn4C)c23)cc1`
> 100 µM

Next up: `Nc1nc(N)c(-c2ccccc2)c(C(=O)Nc2ccccc2)n1`
> 100 µM

Query `COc1cc2c(cc1Cc1cccc(Cl)c1F)c(=O)c(C(=O)O)cn2[C@@H](CO)C(C)C` next
8.88 µM

Please give the result for `CC1=NN(c2ccc(S(=O)(=O)O)cc2)C(=O)/C1=C/c1ccc(Cl)cc1` too.
> 100 µM

----------
- System: NCI-H23 lung
- protocolSummary: NCI tumour cell line growth inhibition, 48 h
propertyName: TGI

Would you kindly share the measured TGI for `CNC(=O)NCCN1CC2CCC(CC2)C1` ?
> 10 µM

Proceed to N#C[Se]CCN1C(=O)C2C(C1=O)[C@H]1C=C[C@@H]2S1 (stereo partly specified)
6.51 µM

Same question for O=[N+]([O-])c1ccc(C2CC(c3ccccc3)=Nc3ccccc3S2)cc1 (stereo unspecified) please.
> 100 µM

Continue with `O=c1[nH]nc(Cc2ccccc2)n1CCCl`
> 100 µM

Could you do the same for CCCCNC(=O)C1C(=O)N(CCCC)C(=O)/C1=N\N (stereo unspecified) , please?
> 100 µM

Param item: CCOC(=O)C(Cc1cn(C(C)=O)c2ccccc12)P(=O)(OCC)OCC (stereo unspecified)
> 100 µM

Same thing, different compound: O=C(NCc1cccnc1)C1COc2cc(-c3cc(=O)c4ccccc4o3)ccc2O1 (stereo unspecified)
> 100 µM

What about this compound? `C/C(=N\NC(=S)NCCCCNC(=S)N/N=C(\C)c1ccccn1)c1ccccc1`
25.3 µM

Please do the same for `N#Cc1ccc(N2CCOCC2)cc1` as well.
> 100 µM

Now try `Cn1c(=O)c2c(nc3sc4c(n32)C(=O)c2c(O)ccc(O)c2C4=O)n(C)c1=O` .
21.2 µM

Query `O=C1C=CC(=O)c2c1ccc1c3ccccc3n(-c3ccccc3)c21` next
34.1 µM
